Listed molecules paired with reported TGI
Test system: LXFL 529 NSCLC
Assay: NCI tumour cell line growth inhibition, 48 h

Examples with their reported TGI follow.
| molecule | TGI |
| --- | --- |
| CC1=C(C(=O)Nc2ccccc2C)C(c2ccc([N+](=O)[O-])cc2)C(C(=O)Nc2ccccc2C)=C(C)N1 | > 100 µM |
| Cn1cc2c(n1)c(N/N=C/c1ccccc1)nn1nnnc21 | > 100 µM |
| COC(=O)c1ccccc1NC(=O)C(=O)CC(=O)c1ccccc1NC1=CC(=O)C(=O)c2ccccc21 | 27.2 µM |
| O=c1ccc2ccccc2o1 | > 100 µM |

*Q* Which TGI value is on record for Nc1nc2c(ncn2CCOC(c2ccccc2)P(=O)(O)O)c(=O)[nH]1 (stereo not given) ?
*A* > 100 µM

*Q* Which TGI value is on record for N#C/C(=C/c1cccnc1)C(=O)c1ccccc1 ?
*A* > 100 µM

*Q* Which TGI value is on record for Cc1ccc(NC(=O)CC(=O)n2nc(-c3ccccc3)c(N=Nc3ccc(Cl)cc3)c2-c2ccccc2)cc1 ?
*A* > 100 µM

*Q* Which TGI value is on record for Cc1cc(O)c2c(c1)C(=O)c1cc(O)cc(O)c1C2=O ?
*A* 85.3 µM

*Q* Which TGI value is on record for CCCCCCCCCCCCCC/C(C(=O)OC)=C(/O)C(=O)OCC ?
*A* > 100 µM

*Q* Which TGI value is on record for NC(=O)N/N=C(\Cc1nc2ccc(C(=O)c3ccccc3)cc2[nH]c1=O)C(=O)Nc1ccc(Br)cc1 ?
*A* > 100 µM

----------
Test system: SF-268 CNS
Experiment: NCI tumour cell line growth inhibition, 48 h; in the data active = GI50 below about 0.43 µM; inactive = the rest
Just give me one of these, please: active, inactive

Below, 5 compounds whose answers are already recorded.
| compound | category.label |
| --- | --- |
| COc1cc(/C=C/C(=O)c2cc(F)c(Cl)cc2Cl)cc(OC)c1OC | inactive |
| Nc1nc2c(c3ncccc13)C(c1cccc(Cl)c1)Cc1ncccc1-2 (stereo unspecified) | inactive |
| CC(=O)OCC1OC(OC2CC3C(C)(C)C(OC(C)=O)CC[C@]3(C)C3CCC45CC4(CC[C@H]5C(C)CC(O)C4OC4(C)C)[C@]23C)C(O)C(O)C1O (stereo partly specified) | inactive |
| COC(=O)c1c2c(c(C)[n+]([O-])c1C)C(=O)C=C(NCc1cccc(OC)c1)C2=O | inactive |
| Cc1cc(S(=O)(=O)Nc2nc3ccsc3c(=O)n2Cc2ccco2)c(S)cc1Cl | inactive |

*Q* Dear colleague, could you share the recorded outcome for CS(=O)(=O)N1CCN(Cc2cc3nc(-c4cccc5[nH]ncc45)nc(N4CCOCC4)c3s2)CC1 (tested in a mixture with another compound) when you have a moment?
*A* active

*Q* Dear colleague, could you share the recorded outcome for Cc1ccc(S(=O)(=O)Oc2ccc3c4c(c(=O)oc3c2)CCCCC4)cc1 when you have a moment?
*A* inactive

*Q* Dear colleague, could you share the recorded outcome for CCC(=O)OC1CCn2c1nc1c2C(=O)C(C)=C(N2CC2)C1=O (stereo unspecified) when you have a moment?
*A* active

*Q* Dear colleague, could you share the recorded outcome for N#CC1C(=N)Cc2ccccc2-c2ccccc21 (stereo unspecified) when you have a moment?
*A* inactive

*Q* Dear colleague, could you share the recorded outcome for O=C1c2ccccc2S(=O)(=O)N1CSC(=S)N1CCCC1 when you have a moment?
*A* inactive

*Q* Dear colleague, could you share the recorded outcome for COc1c2ccccc2c(O)c2c(=O)c(C(=O)O)cn(C)c12 when you have a moment?
*A* inactive

----------
Tested on: T-47D breast
Test: NCI tumour cell line growth inhibition, 48 h; in the data active = GI50 below about 0.43 µM; inactive = the rest
Just give me one of these, please: label 1 for active, label 0 for inactive

Below, 6 molecules whose answers are already recorded.
| molecule | target.under.test | category.label |
| --- | --- | --- |
| CN1CCN(c2ccc(-c3cnc4c(-c5csc6ccccc56)cnn4c3)cc2)CC1 | T-47D breast | label 0 |
| Nc1nc2c(c3ncccc13)C(c1cccc(Cl)c1)Cc1ncccc1-2 (centres undefined) | T-47D breast | label 0 |
| N#C/C(=C\c1ccc(Br)cc1)n1nnc2cccc(F)c21 | T-47D breast | label 0 |
| O=S(=O)(NC(=S)Nc1ccccc1)c1ccc(N2N=C3c4ccccc4CC3C2c2cccs2)cc1 (centres undefined) | T-47D breast | label 0 |
| Cn1ccc(=Nc2ccc(NC(=O)c3ccc(N=c4ccn(C)c5ccc([N+](=O)[O-])cc45)cc3)cc2)cc1 | T-47D breast | label 0 |
| COC(=O)c1ccc(=O)c2nc3/c(=C/O)c(O)cc(=O)c3[nH]c12 | T-47D breast | label 0 |

*Q* Dear colleague, could you share the recorded outcome for N#CC1C(=N)Cc2ccccc2-c2ccccc21 (centres undefined) when you have a moment?
*A* label 0

*Q* Dear colleague, could you share the recorded outcome for C=C(CN1CCN(c2cccc(C(F)(F)F)c2)CC1)c1ccc(C(=O)Nc2ccccc2N)cc1 when you have a moment?
*A* label 0

*Q* Dear colleague, could you share the recorded outcome for CO[C@H]1[C@H](O)[C@H](O[C@H]2CC[C@@]3(C)[C@H](CC[C@@H]4[C@@H]3CC[C@]3(C)[C@@H](C5=CC(=O)OC5)CC[C@]43O)C2)O[C@@H](C)[C@@H]1O when you have a moment?
*A* label 1

----------
Test system: SW-620 colon
Assay: NCI tumour cell line growth inhibition, 48 h
value.kind: TGI

*Q* Which TGI value is on record for CCC(=O)OCc1ccc2oc(=O)c(C(=O)Oc3cncc(Cl)c3)cc2c1 ?
*A* > 100 µM

*Q* Which TGI value is on record for Cc1ccc(/C=C2\NC(=S)N(CN3CCOCC3)C2=O)cc1 ?
*A* > 100 µM

*Q* Which TGI value is on record for CCCCCCOc1ccc(NC2=C(Cl)C(=O)c3cccnc3C2=O)cc1 ?
*A* 3.88 µM

*Q* Which TGI value is on record for COc1cc(NN=C(c2ccc(O)cc2)c2ccc(O)cc2)c([N+](=O)[O-])cc1[N+](=O)[O-] ?
*A* 33.6 µM

*Q* Which TGI value is on record for O=C(O)c1c(CC(Cc2ccc3c(c2)CCCC3)C(=O)O)ccc2c1CCCC2 (stereo unspecified) ?
*A* > 100 µM

*Q* Which TGI value is on record for O=C(O)CCC1COc2ccccc2O1 (stereo unspecified) ?
*A* > 10 µM

*Q* Which TGI value is on record for CCCCCCCCOc1ccc(/C=N/Nc2cc(C)nc3ccc(Cl)cc23)cc1 ?
*A* 3.63 µM

*Q* Which TGI value is on record for Cn1c(N2CCCC2)c(C=O)c(=O)n(C)c1=O ?
*A* > 100 µM

*Q* Which TGI value is on record for C=C1C(=O)OC2/C=C(\C)C(O)CC(O)C(C)(O)CC(OC(=O)/C(C)=C/C)C12 (stereo unspecified) ?
*A* > 100 µM

*Q* Which TGI value is on record for C(CCc1nnc2c(n1)CCCC2)Cc1nnc2c(n1)CCCC2 ?
*A* > 100 µM

*Q* Which TGI value is on record for Oc1cc(Cl)cc2cc(Br)cnc12 ?
*A* > 100 µM

----------
System: KM20L2 colon
Test: NCI tumour cell line growth inhibition, 48 h
value.kind: TGI

Examples with their reported TGI follow.
| molecule | value.kind | reported.result |
| --- | --- | --- |
| O=[N+]([O-])c1ccc(NC2OCC(O)C(O)C2O)cc1 (centres undefined) | TGI | > 100 µM |
| CC(=O)NNc1nc(C)c(C(/C=C/c2ccc(Cl)cc2)=N\NS(=O)(=O)c2ccc(C)cc2)s1 | TGI | > 100 µM |
| O=C(CC/C(C/C(=N/O)c1ccc(F)cc1)=N/O)N(Cc1ccccc1)Cc1ccccc1 | TGI | > 100 µM |
| O=C([O-])c1ccc2c(c1)-c1nc-2nc2[n-]c(nc3nc(nc4[n-]c(n1)c1ccc(C(=O)[O-])cc41)-c1cc(C(=O)[O-])ccc1-3)c1ccc(C(=O)[O-])cc21.[Fe+2] | TGI | > 50 µM |
| CCSc1nc2sc(C)c(C)c2c(=O)n1-c1ccc(C(=O)O)cc1 | TGI | > 100 µM |
| CCC(C(=O)[O-])C(=O)[O-].CCC(C(=O)[O-])C(=O)[O-].N.N.NCCCCCN.[Pt+4].[Pt+4] | TGI | > 100 µM |
| CCOc1ccccc1NC(=O)CCc1nnc2s/c(=C\CCc3ccccc3)c(=O)n12 | TGI | > 100 µM |
| CN1N=C2c3ccccc3CC[C@H]2C1c1ccccc1 (some centres undefined) | TGI | > 100 µM |

*Q* Which TGI value is on record for CCOC(OCC)C(CC)[Se]c1ccccc1[N+](=O)[O-] (centres undefined) ?
*A* 6.36 µM

----------
Test system: SK-MEL-5 melanoma
Test: NCI tumour cell line growth inhibition, 48 h
value.kind: TGI (µM)
Numeric only. Scale: µM

Examples with their reported TGI follow.
| compound | target.under.test | result.unit | reported.result |
| --- | --- | --- | --- |
| COC(=O)C(NC(=O)CNC(=O)CSc1nnc(COc2ccc(Cl)cc2)n1-c1ccccc1)C(C)C (stereo not drawn) | SK-MEL-5 melanoma | µM | 30 |
| CS(=O)(=O)N1CCN(Cc2cc3nc(-c4cccc5[nH]ncc45)nc(N4CCOCC4)c3s2)CC1 (tested in a mixture with another compound) | SK-MEL-5 melanoma | µM | 0.638 |
| CCCCCCOc1ccc(NC2=C(Cl)C(=O)c3cccnc3C2=O)cc1 | SK-MEL-5 melanoma | µM | 2.31 |

Proceed to the following item.
*Q* What TGI appears in the records for this compound with SK-MEL-5 melanoma? C=C(CN(CC(=C)C(=O)c1ccccc1)C(C)(C)C)C(=O)c1ccccc1
*A* 31.1
